- measuredOn: Interleukin-1 receptor-associated kinase 4 (Homo sapiens, UniProt Q9NWZ3)
- Sequence (Q9NWZ3 whole entry): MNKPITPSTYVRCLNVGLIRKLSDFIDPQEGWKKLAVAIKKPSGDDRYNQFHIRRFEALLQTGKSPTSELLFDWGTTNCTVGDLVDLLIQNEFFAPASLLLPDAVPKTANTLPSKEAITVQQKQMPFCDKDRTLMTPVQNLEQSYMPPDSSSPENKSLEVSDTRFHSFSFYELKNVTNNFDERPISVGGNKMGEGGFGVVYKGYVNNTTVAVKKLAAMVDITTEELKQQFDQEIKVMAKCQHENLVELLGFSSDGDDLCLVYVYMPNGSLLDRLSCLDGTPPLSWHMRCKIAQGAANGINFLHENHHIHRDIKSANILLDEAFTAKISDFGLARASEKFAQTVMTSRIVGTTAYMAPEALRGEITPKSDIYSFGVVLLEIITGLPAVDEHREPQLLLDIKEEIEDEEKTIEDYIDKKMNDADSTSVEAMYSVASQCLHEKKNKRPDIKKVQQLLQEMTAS
- experimentNotes: Inhibition of IRAK4 in human whole blood assessed as inhibition of LTA-induced IL-6 production preincubated for 30 mins followed by LTA-stimulation and measured after 5 hrs by ELISA
- Assay type: tissue-based
measuredMetric: IC50 (nM)

Example compounds with recorded IC50:
| structure | measuredOn | unitsLabel | IC50 |
| --- | --- | --- | --- |
| CC(C)(O)[C@H](F)CNC(=O)c1cnc(Nc2ccc3ncsc3c2)cc1NC1CC1 | Interleukin-1 receptor-associated kinase 4 (Homo sapiens, UniProt Q9NWZ3) | nM | 810 |
| CC(C)Nc1cc(Nc2ccc3ncsc3c2)ncc1C(=O)NCCC(C)(C)O | Interleukin-1 receptor-associated kinase 4 (Homo sapiens, UniProt Q9NWZ3) | nM | 1100 |
| CC(C)(O)CCNC(=O)c1cnc(Nc2ccc3ncsc3c2)cc1NC1CC1 | Interleukin-1 receptor-associated kinase 4 (Homo sapiens, UniProt Q9NWZ3) | nM | 900 |

P. CC(C)Nc1cc(Nc2ccn3nccc3c2)ncc1C(=O)NC[C@@H](F)C(C)(C)O
Q. CC(C)Nc1cc(Nc2ccc3nsnc3c2)ncc1C(=O)NC[C@@H](F)C(C)(C)O
R. CC(C)Nc1cc(Nc2ccc3ncsc3c2)ncc1C(=O)NC[C@@H](F)C(C)(C)O
In: Sort by IC50, descending. Reply with the item labels sorted in the order that was asked for.
Out: R, Q, P
(R: 2000 nM, Q: 1160 nM, P: 650 nM)
